B1: Ribonuclease, P00648 (parent)
chain: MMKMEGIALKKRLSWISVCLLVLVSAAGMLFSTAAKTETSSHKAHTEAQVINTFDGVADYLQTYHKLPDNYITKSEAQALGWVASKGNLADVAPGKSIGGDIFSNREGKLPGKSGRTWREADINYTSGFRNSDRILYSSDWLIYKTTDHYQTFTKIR

Variants of: B1
Run Parameters: Bacillus amyloliquefaciens; pH 6.3; 25 °C; Urea; Fluorescence; MES 50 mM; reversible: yes; structure 1BNI; whole UniProt chain shown
Assay Endpoint: denaturant midpoint (higher = more stable) (M)
Kindly answer with a numeric value in M, unit omitted.

Measured denaturant midpoint (higher = more stable) of D59A R157A : 4.78
